Test system: AGS cells (KRAS G12D), phospho-ERK
Assay: pERK In Cell Western (ICW) assay (Method B), AGS cells
Type: cell-based
Details: Homo sapiens, Table 4, pERK, 3 hours, read-out: ICW-AGS
Exercise: state measured IC50 for each of the compounds provided.

Request: Tell me reported IC50 for `N#Cc1c(N2C[C@H]3CC[C@@H](C2)N3)nc(OCC2(CN3CCOCC3)CC2)nc1N1CC2(CCc3sc(N)nc32)C1` , tested with AGS cells (KRAS G12D), phospho-ERK.
Result: 100 to 1000 nM

Request: Tell me reported IC50 for `N#Cc1c(N2C[C@H]3CC[C@@H](C2)N3)nc(OCC2(CN3C[C@@H]4C[C@H]3CO4)CC2)nc1N1CC2(CCc3sc(N)c(C#N)c32)C1` , tested with AGS cells (KRAS G12D), phospho-ERK.
Result: 10 to 100 nM

Request: Tell me reported IC50 for `Cc1noc(-c2nn3c(c2Cl)CN(c2nc(OC[C@@]45CCCN4C[C@H](F)C5)nc(N4CC5(CCc6sc(N)c(C#N)c65)C4)c2C#N)CCC3)n1` , tested with AGS cells (KRAS G12D), phospho-ERK.
Result: 100 to 1000 nM

Request: Tell me reported IC50 for `C[C@H](Oc1nc(N2C[C@H]3CC[C@@H](C2)N3)c(C#N)c(N2CC3(CCc4sc(N)c(C#N)c43)C2)n1)[C@@H]1CCCN1C` , tested with AGS cells (KRAS G12D), phospho-ERK.
Result: 1000 to 10000 nM

Request: Tell me reported IC50 for `N#Cc1c(N2C[C@H]3CC[C@@H](C2)N3)nc(OCC2(CN3CCC(F)(F)CC3)CC2)nc1N1CC2(CCc3sc(N)c(C#N)c32)C1` , tested with AGS cells (KRAS G12D), phospho-ERK.
Result: 10 to 100 nM

Request: Tell me reported IC50 for CN(C)CC1(COc2nc(N3CCCn4nc(C(=O)N(C)C)c(Cl)c4C3)c(C#N)c(N3CC4(CCc5sc(N)c(C#N)c54)C3)n2)CC1(F)F (stereo not drawn) , tested with AGS cells (KRAS G12D), phospho-ERK.
Result: 10 to 100 nM

From: patent US12145947B2
